- System: SF-268 CNS
- Assay summary: NCI-60 one-dose screen, 48 h (100 = growth as untreated, 0 = no growth, -100 = all killed)
- Condition notes: 10 µM unless noted
This is part of a sample that, as a whole, favours compounds with a hit. Of some 83,000 tested, about 20% had one in any assay.
Reported growth values for the following molecules.
Unit % implied. Number only.

Illustrative cases are given below, each with its answer.
| Molecule | Measurement unit | growth |
| --- | --- | --- |
| COc1cc(C(=O)/C=C/c2cccc(Nc3ccnc4cc(Cl)ccc34)c2)cc(OC)c1OC | % | -16.6 |
| O=C1C2C(C(=O)N1CC[Se][Se]CCN1C(=O)C3C(C1=O)[C@H]1C=C[C@@H]3C1)[C@H]1C=C[C@@H]2C1 (some centres undefined) | % | -45.8 |
| COc1ccc(C2CC(c3ccc(Nc4ccnc5cc(Cl)ccc45)cc3)=NN2C(C)=O)cc1 (centres undefined) | % | 72.2 |
| CCOC(=O)c1sc(NC(=O)COc2cccc(/C=C3\Cc4ccc(Cl)cc4C3=O)c2)nc1C | % | 116 |
| Cc1nn(-c2ccccc2)c2nc(N)c(C3=NCCO3)nc12 | % | 111 |
| Cc1n(Cc2ccc3ccccc3c2)cc[n+]1Cc1ccc2ccccc2c1 | % | 18.9 |
| CCOC(=O)OCC(=O)[C@@]1(O)CC[C@H]2[C@@H]3CCC4=CC(=O)CC[C@]4(C)[C@H]3[C@@H](O)C[C@@]21C | % | 94 |
| Nc1c(C(=O)Nc2cccc(Cl)c2)sc2nc3c(cc12)C(O)CCC3 (centres undefined) | % | 50.2 |

Prompt: I would be grateful if you could share the reported growth for `Cc1[nH]c(=O)[nH]c(=O)c1CCSSCCc1c(C)[nH]c(=O)[nH]c1=O` .
Response: 113

---

- System: A498 renal
- Assay summary: NCI-60 one-dose screen, 48 h
- Condition notes: 10 µM unless noted
Compounds without any hit were thinned out: in the full panel of roughly 83,000, 20% have a hit. Calls of active or inactive are those of the source. Rule for the calls: active = growth percent below 10; inactive = the rest.
Allowed answers: yes (active), no (inactive)

Recorded results for 5 compounds are shown here.
| Compound | Label class |
| --- | --- |
| COc1cc(C(=O)/C=C/c2cccc(Nc3ccnc4cc(Cl)ccc34)c2)cc(OC)c1OC | no |
| COCCCNS(=O)(=O)c1ncnc2nc[nH]c12 | no |
| C[C@]12CC[C@H](O)CC1=CC[C@@H]1[C@@H]2CC[C@]2(C)C(c3cccnc3)=CC[C@@H]12 | no |
| CNc1nc(NC2CCCC2)nc(Sc2ccc(OC)cc2)n1 | no |
| COP(=O)(OC)C(c1ccc(O)cc1)(c1ccc(O)cc1)c1ccc(O)cc1 | no |

Prompt: // param item: `N[C@H](CS)C(=O)O` ; yields the recorded call
Response: no

Prompt: // param item: `O=C(Nc1ccccc1)c1cc(-n2cnc([N+](=O)[O-])c2)cc(-n2cnc([N+](=O)[O-])c2)n1` ; yields the recorded call
Response: no

Prompt: // param item: `COc1c(Br)cc(C(c2cc(Br)c(OC)c(Br)c2)c2ccccc2C(=O)O)cc1Br` ; yields the recorded call
Response: no

---

- Test system: NCI/ADR-RES ovarian
- Assay summary: NCI-60 one-dose screen, 48 h (100 = growth as untreated, 0 = no growth, -100 = all killed)
- Condition notes: 10 µM unless noted
This is part of a sample that, as a whole, favours compounds with a hit. Of some 83,000 tested, about 20% had one in any assay.
Reported metric: growth (%)
Unit % implied. Number only.

Illustrative cases are given below, each with its answer.
| Compound | Measurement unit | growth |
| --- | --- | --- |
| CC[C@@H](C)/C=C(C)/C=C/C(=O)c1c(O)c(-c2ccc(O)cc2)cn(OC2CC(=O)CCC(C)OC(=O)CC2O)c1=O (some centres undefined) | % | 5.21 |
| COc1ccc(-c2cnc(SCC(=O)Nc3ccc(-c4nc5ccccc5s4)cc3)n2-c2ccc(OC)cc2)cc1 | % | 107 |
| COc1ccc(C(=O)/C=C/c2ccc(C)cc2)cc1OC | % | 71.2 |
| CC(=O)/C(=C/c1ccc(Cl)cc1)C(=O)c1ccccc1 | % | 85.2 |
| CC(=O)OC1Oc2cc(C)c(C)cc2-c2oc(=O)c(-c3ccccc3)cc21 (centres undefined) | % | 25.3 |
| COc1cc(C(=O)/C=C/c2cccc(Nc3ccnc4cc(Cl)ccc34)c2)cc(OC)c1OC | % | 12.2 |
| C=CCNC(=O)/C(=C/c1cccc([N+](=O)[O-])c1)NC(=O)c1ccccc1 | % | 106 |
| COc1ccc(CNC(=O)c2c(C)n([O-])c3ccccc3[n+]2=O)cc1 | % | 54.2 |

Please turn your attention to the following entry.
Prompt: I would be grateful if you could share the reported growth for Cn1c(N2N=C(c3ccc(Cl)cc3)CC2c2ccccc2)nc(-c2ccccc2)c(C#N)c1=O (centres undefined) .
Response: 82.9

---

- Test system: SF-295 CNS
- Assay summary: NCI-60 one-dose screen, 48 h
- Condition notes: 10 µM unless noted
Compounds without any hit were thinned out: in the full panel of roughly 83,000, 20% have a hit. Active and inactive are the calls of the source. The calls were made as follows: active = growth percent below 10; inactive = the rest.
Allowed answers: true for active, false for inactive

Recorded results for 6 compounds are shown here.
| Compound | Label class |
| --- | --- |
| O=C(Oc1cccc2ccccc12)c1ccccc1C(=O)c1ccccc1 | false |
| O=C(Nc1nn2c(-c3cc(C(F)(F)F)cc(C(F)(F)F)c3)nnc2s1)C1CCCC1 | true |
| COc1cc(OC)c2c(c1Cl)O[C@]1(C2=O)C(OCc2ccccc2)=CC(=O)C[C@H]1C | true |
| CCCCc1n(Cc2ccc3ccccc3c2)cc[n+]1Cc1ccc2ccccc2c1 | true |
| O=C(/C=C(\Nc1ccccc1)c1ccccc1)c1cn(-c2ccc([N+](=O)[O-])cc2)nn1 | false |
| N#Cc1c(-c2ccccc2)cc(-c2ccccc2)n(CCCCC(=O)O)c1=O | false |

Prompt: // param item: `O=C1Nc2ccc(Cl)cc2[C@@](C#CC2CC2)(C(F)(F)F)O1` ; yields the recorded call
Response: false

Prompt: // param item: CC1CN(C2CCCCC2)C(=O)NC1=O (centres undefined) ; yields the recorded call
Response: false

Prompt: // param item: `CCSc1nc(Nc2ccc(S(=O)(=O)Nc3ccon3)cc2)c(C#N)c(-c2cccc(Br)c2)n1` ; yields the recorded call
Response: false

Prompt: // param item: `CCOC(=O)c1sc(NC(=O)COc2cccc(/C=C3\Cc4ccc(Cl)cc4C3=O)c2)nc1C` ; yields the recorded call
Response: false

Prompt: // param item: `O=C1NC(=S)S/C1=C\c1cc(Br)ccc1O` ; yields the recorded call
Response: false

Prompt: // param item: Cc1c2oc3c(C)ccc(C(=O)OC(C)C4NC(=O)C(C(C)C)N(C)C(=O)CN(C)C(=O)C5CCCN5C(=O)C(C(C)C)NC4=O)c3nc-2c(C(=O)OC(C)C2NC(=O)C(C(C)C)N(C)C(=O)CN(C)C(=O)C3CCCN3C(=O)C(C(C)C)NC2=O)c(N)c1=O (centres undefined) ; yields the recorded call
Response: true

Prompt: // param item: `O=C(O)CNC(=O)C1(N2C(=O)c3ccccc3C2=O)CCCC1` ; yields the recorded call
Response: false

Prompt: // param item: `COc1ccc(CC(=O)Nc2nn3c(-c4cc(C(F)(F)F)cc(C(F)(F)F)c4)nnc3s2)cc1` ; yields the recorded call
Response: false

---

- Tested on: 786-0 renal
- Assay summary: NCI-60 one-dose screen, 48 h (100 = growth as untreated, 0 = no growth, -100 = all killed)
- Condition notes: 10 µM unless noted
- Procedure: Cells are grown in 96 well plates and exposed to the test compound for 48 hours. Compounds are tested at a single concentration, which is 10^-5 M for most compounds. The reported endpoint is percent growth (GI% or GIPRCNT), where numbers from 0 - 100% represent growth inhibition, and numbers from -100% - 0 represent cell death. For example, a value of 40 represents 60% growth inhibition. A value of 0 means no net growth occurred over the course of the experiment. […]
This is part of a sample that, as a whole, favours compounds with a hit. Of some 83,000 tested, about 20% had one in any assay.
Reported metric: growth (%)
Unit % implied. Number only.

Illustrative cases are given below, each with its answer.
| Compound | Reported metric | Assay value |
| --- | --- | --- |
| COCCOCCOCCOCCOc1ccc2c(c1)C(=O)c1nc3ncccc3c(=O)n1-2 | growth | -51.5 |
| CC(=O)Nc1cc2c3c(cccc3c1)-c1ccccc1-2 | growth | 50.4 |
| Nc1ccc2c(c1Br)Cc1ccccc1-2 | growth | 107 |
| COc1cc(C(=O)c2cc3c(cc2C)OCO3)cc(OC)c1OC | growth | 51.3 |
| Cc1cc(=O)oc2cc(OCCn3c(C)nn(-c4ccc(Cl)cc4)c3=O)ccc12 | growth | 32.9 |

Prompt: I would be grateful if you could share the reported growth for `O=C(NCCCl)NCCN1c2nc3ccccc3cc2Sc2cc3ccccc3nc21` .
Response: 57.9

Prompt: I would be grateful if you could share the reported growth for `OCCCc1n(Cc2ccc3ccccc3c2)c2ccccc2[n+]1Cc1ccc2ccccc2c1` .
Response: 36

Prompt: I would be grateful if you could share the reported growth for O=C1OC(Oc2ccccc2)(c2ccccc2)c2ccccc21 (stereo not given) .
Response: 101

Prompt: I would be grateful if you could share the reported growth for `Cc1cc2ccccn2c1C(=O)c1ccc(C(=O)c2ccccc2)cc1` .
Response: 84.9

Prompt: I would be grateful if you could share the reported growth for `O=C1C=CC(=O)N1c1ccccn1` .
Response: 105

Prompt: I would be grateful if you could share the reported growth for `O=C(O)c1ccc(CNS(=O)(=O)c2ccc3ccccc3c2)cc1` .
Response: 106
